B1: CHIT1 (parent)
chain: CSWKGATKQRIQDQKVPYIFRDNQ

Variants of: B1
METHOD DESCRIPTION: protein stability index of a GFP-peptide fusion (GPS, HEK-293T) (PSI 1-6); higher = more stable;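 further: lentivirally expressed fusions sorted by FACS into six bins by GFP to DsRed ratio, PSI derived from sequencing read proportions per bin multiplied by bin number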
CONDITIONS USED: c terminus: a fixed tail appended
Each record's protein stability index is compared with interval 1 = under 2, interval 2 = from 2 up to 3, interval 3 = 3 and over to give its class.

# bin lookup: classify `D13Q` by its protein stability index
interval 2

Assign a category based on measured protein stability index for `D13E` and give only the class name.
interval 2

// bin(item) where item = `Q24N`
interval 2

Band assignment needed for `P17L` please.
interval 1

Which of the defined bands does the recorded protein stability index of `I11Q` sit within?
interval 3

Class for `I19D` ?
interval 3

Could you tell me which band `F20G` belongs to?
interval 2

Which class holds `Q9T` ?
interval 2

Class label required: `I11C`
interval 2

Could you place `V16P` in its proper category? Many thanks.
interval 3

For `I19M` , which protein stability index bin applies?
interval 3

Kindly state the category for this variant: `K8R`
interval 2

Pick a category. Item: `I19N`
interval 3

Classify this variant: `Q12F`
interval 1

For `T7S` , which protein stability index bin applies?
interval 3

Which band does `N23A` fall in?
interval 2

Looking at `D22V` , which class would you pick?
interval 1

Any idea which band `I19L` is in?
interval 2

Hi, small favor: classify `D13N` by its protein stability index when you get a moment.
interval 1

Would you mind sorting `D22R` into the appropriate category?
interval 2

Place this variant in its band: `K4N`
interval 2

Please classify: `I11P`
interval 2

For the record `G5F` , report the class its protein stability index corresponds to.
interval 1

Looking at `V16I` , which class would you pick?
interval 2

Band for `G5S` ?
interval 3

Band assignment needed for `Q9Y` please.
interval 2

Using the reported protein stability index, which band applies to `K4V` ?
interval 1

Lab note: sort `K8Q` into the matching protein stability index band.
interval 2

Hi there! Could you help me figure out the category for `N23I` please?
interval 2

Where would `Y18P` land among the classes by reported protein stability index?
interval 2

Sort `Q14C` into one of the categories.
interval 2

Input `P17M` ; output its category
interval 1

The entry to classify is `F20P` ; which class holds it?
interval 3

Band of `G5K` ?
interval 2

Hi, small favor: classify `Q9A` by its protein stability index when you get a moment.
interval 2

Classify this variant: `V16F`
interval 2

Could you place `N23W` in its proper category? Many thanks.
interval 1

For the record `T7N` , report the class its protein stability index corresponds to.
interval 2

Exercise: read the entry `T7D` and state which class it falls under.
interval 3

Class? Entry: `I11K`
interval 2
